Test: In vitro cytotoxicity assay (MTT cell viability) in HepG2 cells
Type: cell-based, human
Settings: human
Procedure: To evaluate antiviral selectivity, the cytotoxic activity of each compound was determined using a standard cell viability assay performed on the parental HepG2 cell line. Cell viability was determined by measuring the conversion of 3-(4,5-dimethylthiazol-2-yl)-2,5-diphenyltetrazolium bromide (MTT) to the insoluble formazan salt crystal that occurs in live cells. […] All absorbance values were converted to a percentage of the signal obtained from the vehicle treated controls. […]
Endpoint name: CC50 at 7 days

Consider the worked cases shown below.
Cc1cc(NC(=O)c2cc(C(=O)C(=O)NC(C)(C)C)n3c2CNCC3)ccc1F    5 to 30 µM
Cc1csc(NC(=O)C(=O)c2c(C)c(C(=O)Nc3ccc(F)c(C)c3)c(C)n2C)n1    > 30 µM
Cc1cc(NC(=O)c2c(C)c(C(=O)C(=O)Nc3ccc(F)c(F)c3)n(C)c2C)ccc1F    5 to 30 µM
Cc1cc(NC(=O)c2c(C)c(C(=O)C(=O)NC3(C(F)(F)F)CC(O)C3)n(C)c2C)ccc1F (stereo not drawn)    > 30 µM
Cc1cc(NC(=O)c2c(C)c(C(=O)C(=O)NC3(C(F)(F)F)CCOCC3)n(C)c2C)cc(Cl)n1    > 30 µM
Cc1cc(NC(=O)c2c(C)c(C(=O)C(=O)NC(C)(C)C(F)(F)F)n(CCF)c2C)ccc1F    > 30 µM
Cc1c(C(=O)Nc2ccnc(Cl)c2)c(C)n(C)c1C(=O)C(=O)NC1C2CC3CC1CC(O)(C3)C2 (stereo not drawn)    > 30 µM
Cc1noc([C@@H](C)NC(=O)C(=O)c2c(Cl)c(C(=O)Nc3ccc(F)c(F)c3)c3n2CCCC3)n1    5 to 30 µM
CNC(=O)[C@@H](NC(=O)C(=O)c1c(C)c(C(=O)Nc2ccc(F)c(C)c2)c(C)n1C)C(C)C    0.5 to 4.99 µM
Cc1cc(NC(=O)c2c(C)c(C(=O)C(=O)NC3CCOCC3)n(C)c2C)ccc1F    5 to 30 µM

Read the next record carefully.
Sure, the documented CC50 at 7 days for Cc1c(C(=O)Nc2cccc(C(F)F)c2)c(C)n(C)c1C(=O)C(=O)N[C@H]1CC[C@H](O)CC1 is > 30 µM

* * *

tested on: HBV replication in HepAD38 cells; experiment: Anti-HBV replication assay in HepAD38 cells (QPCR of extracellular HBV DNA); assay type: cell-based, HBV (genotype D, serotype ayw); settings: Hepatitis B virus, positive control, read-out: EC50 in the HepAD38 assay
Endpoint name: EC50 (pM)
Kindly answer with a numeric value in pM, unit omitted.

For this compound ( C=C1[C@H](CO)[C@@H](O)C[C@@H]1n1cnc2c(=O)[nH]c(N)nc21 [entecavir, reference compound] ), measured EC50 is 500

* * *

Items are presented alongside their recorded CC50 at 7 days.
test: In vitro cytotoxicity assay (MTT cell viability) in HepG2 cells; assay type: cell-based, human; conditions: human

For orientation, consider the following solved cases.
CC(=O)N1CC[C@H](NC(=O)C(=O)c2c(C)c(C(=O)Nc3ccc(F)c(C)c3)c(C)n2C)C1    > 30 µM
CO[C@H]1CC[C@H](NC(=O)C(=O)c2c(C)c(C(=O)Nc3ccc(F)c(C)c3)c(C)n2C)CC1    5 to 30 µM
Cc1cc(NC(=O)c2c(C)c(C(=O)C(=O)N[C@H]3CNC(=O)C34CC4)n(C)c2C)ccc1F    > 30 µM
Cc1cc(NC(=O)c2c(C)c(C(=O)C(=O)NC3(CO)CCCCC3)n(C)c2C)ccc1F    > 30 µM
Cc1c(C(=O)Nc2ccc(F)nc2)c(C)n(C)c1C(=O)C(=O)NC1CCc2nc(N)sc2C1 (stereo not drawn)    > 30 µM

Short answer for Cc1cc(NC(=O)c2c(C)c(C(=O)C(=O)N[C@@H](C(=O)O)[C@@H](C)O)n(C)c2C)ccc1F : CC50 at 7 days was > 30 µM

Reported CC50 at 7 days for CNC(=O)C(=O)c1c(C)c(C(=O)Nc2ccc(F)c(C)c2)c(C)n1C was > 30 µM

compound Cc1cc(Cl)cc(NC(=O)c2c(C)c(C(=O)C(=O)N[C@@H]3CCC[C@@H](O)C3)n(C)c2C)c1 , CC50 at 7 days observed: > 30 µM

* * *

experiment: In vitro cytotoxicity assay (MTT cell viability) in HepG2 cells; type: cell-based, human; settings: human
Endpoint name: CC50 at 7 days

Examples from the recorded data:
Cc1noc([C@@H](C)NC(=O)C(=O)c2cc(C(=O)Nc3ccc(F)c(C)c3)c3n2CCCC3)n1    > 30 µM
Cc1c(C(=O)Nc2ccc(F)nc2)c(C)n(C)c1C(=O)C(=O)NC1(C(N)=O)CCCCC1    > 30 µM
Cc1c(C(=O)Nc2ccc(F)cc2)c(C)n(C)c1C(=O)C(=O)N[C@H](C)C(F)(F)F    > 30 µM
Cc1noc([C@@H](NC(=O)C(=O)c2c(C)c(C(=O)Nc3ccc(F)c(C)c3)c(C)n2C)C(C)C)n1    > 30 µM
Cc1cc(NC(=O)c2c(C)c(C(=O)C(=O)NCc3nnc(C(F)(F)F)[nH]3)n(C)c2C)ccc1F    5 to 30 µM

// CC50 at 7 days value for CNC(=O)[C@H](NC(=O)C(=O)c1c(C)c(C(=O)Nc2ccc(F)c(C)c2)c(C)n1C)C(C)C : 0.5 to 4.99 µM

* * *

assay: In vitro cytotoxicity assay (MTT cell viability) in HepG2 cells; type: cell-based, human; details: human
As shown below, each of these compounds has a reported CC50 at 7 days value.

Example entries begin here.
O=C(N[C@H]1CCC[C@H]1O)C(=O)c1c(Cl)c(C(=O)Nc2ccc(F)c(F)c2)c2n1CCC2    > 30 µM
Cc1cc(NC(=O)c2c(C)c(C(=O)C(=O)NCCCN3CCOCC3)n(C)c2C)ccc1F    > 30 µM
Cc1cc(NC(=O)c2c(C)c(C(=O)C(=O)NC3(C)CC(F)(F)C3)n(C)c2C)cnc1F    > 30 µM

Measured CC50 at 7 days, CCOC(=O)[C@@H](CO)NC(=O)C(=O)c1c(C)c(C(=O)Nc2ccc(F)c(C)c2)c(C)n1C : > 30 µM

The compound identified as Cc1cc(NC(=O)c2c(C)c(C(=O)C(=O)NCC3(O)CCOCC3)n(C)c2C)ccc1F registered its CC50 at 7 days at > 30 µM

So, Cc1noc(C2(NC(=O)C(=O)c3c(C)c(C(=O)Nc4ccc(F)c(C)c4)c(C)n3CCF)CC2)n1 ? Its CC50 at 7 days was > 30 µM

Measured CC50 at 7 days of O=C(N[C@H]1C[C@H](O)C1)C(=O)c1c(Cl)c(C(=O)Nc2ccc(F)c(F)c2)c2n1CCC2 : > 30 µM

Reported CC50 at 7 days ( Cc1noc([C@H](C)NC(=O)C(=O)c2c(C)c(C(=O)Nc3ccc(F)c(F)c3)c3n2CCCC3)n1 ) = > 30 µM

For reference, reported CC50 at 7 days for Cc1cc(NC(=O)c2c(C)c(C(=O)C(=O)NC(C)(C)CN3CCOCC3)n(C)c2C)cnc1F stands at > 30 µM

Field CC50 at 7 days (entry Cc1cc(NC(=O)c2c(C)c(C(=O)C(=O)NC3CC[C@@H](O)[C@@H](O)CC3)n(C)c2C)ccc1F (stereo partly drawn) ) reads > 30 µM

Noted for Cc1c(C(=O)Nc2ccc(F)c(F)c2)c2n(c1C(=O)C(=O)NC1(CO)CC(F)(F)C1)CCCC2 : its CC50 at 7 days reads 5 to 30 µM

compound CC(C)(O)CNC(=O)C(=O)c1c(Cl)c(C(=O)Nc2ccnc(F)c2)c2n1CCCC2 , CC50 at 7 days observed: > 30 µM

Measured CC50 at 7 days of Cc1c(C(=O)Nc2cccc(Cl)c2)c(C)n(C)c1C(=O)C(=O)NC1(C(F)(F)F)CCOCC1 : 5 to 30 µM

Field CC50 at 7 days (entry Cc1[nH]c(C(=O)C(=O)NC(C)(C)C)c(C)c1C(=O)Nc1ccc(F)c(Cl)c1 ) reads 5 to 30 µM

Noted for Cc1cc(NC(=O)c2c(C)c(C(=O)C(=O)NC(C)(C)C)n(CCF)c2C)ccc1F : its CC50 at 7 days reads > 30 µM

* * *

experiment: In vitro cytotoxicity assay (MTT cell viability) in HepG2 cells; assay type: cell-based, human; conditions: human; positive control, HepG2 cells, 7 days, MTT; read-out: CC50 (loss of 50% cell viability)
Endpoint name: CC50 at 7 days (nM)
Please state the figure in nM; there is no need to write the unit.

The compound listed as CN[C@@H]1C[C@H]2O[C@@](C)([C@@H]1OC)n1c3ccccc3c3c4c(c5c6ccccc6n2c5c31)C(=O)NC4 [staurosporine, reference compound] has a reported CC50 at 7 days of 100
